# Test: log P by HPLC on reversed-phase column (EEC directive 79/831 Annex V.A8)
# Type: physicochemical
# Settings: HPLC on reversed-phase column (footnote a)
Quantity: log p
# output: bare number, no unit

Value of measured log p for the entry O=C(Cn1ccnc1)c1c([O-])n(Cc2cnc(Cl)s2)c2cccc[n+]12 [Example I-1-050] : 0.46

Value of measured log p for the entry Cc1ccc[n+]2c(C(=O)Cn3cc(Cl)cn3)c([O-])n(Cc3cnc(Cl)s3)c12 [Example I-1-095] : 2.27

Value of measured log p for the entry O=C(CCl)c1c([O-])n(Cc2ccc(Cl)nc2)c2c(F)cc(F)c[n+]12 [Example I-1-110] : 1.96

Value of measured log p for the entry CC(C)SCC(=O)c1c([O-])n(Cc2cnc(Cl)s2)c2cccc[n+]12 [Example I-1-027] : 2.27
